System: A. baumanii 195N (a)
property name: MIC90 (µg/mL)
Return type: number; implicit unit µg/mL.

Here is how some compounds turned out for MIC90.
compound	property name	reported value
N=C(NC[C@@H]1CCCN1)NC1[C@@H](O)C(OC2[C@@H](F)[C@H](O[C@H]3OC(CN)[C@@H](O)CC3N)C(N)C[C@H]2NC(=O)[C@@H](O)CCN)O[C@H](CO)[C@H]1O (some centres unmarked)	MIC90	8
N=C(N)NC1C(O)[C@@H](CO)OC(OC2C(F)[C@H](O[C@H]3OC(CN)[C@@H](O)CC3N)C(N)C[C@H]2NC(=O)[C@@H](O)CCN)[C@@H]1O (some centres unmarked)	MIC90	4
CN[C@@H]1[C@@H](O[C@H]2O[C@H](CO)[C@@H](N)[C@H](O)[C@H]2O)OC2C[C@@H](N)[C@@H](O[C@H]3[C@H](O)[C@@H](O)[C@H](N)C[C@@H]3N)OC2[C@@H]1O (some centres unmarked) [Apramycin, apramycin, reference compound]	MIC90	32

Pending compound:
Return MIC90 (reported value) for this compound: N=C(NC[C@@H]1CCNC1)NC1[C@@H](O)C(OC2[C@@H](F)[C@H](O[C@H]3OC(CN)[C@@H](O)CC3N)C(N)C[C@H]2NC(=O)[C@@H](O)CCN)O[C@H](CO)[C@H]1O (some centres unmarked)
4

====

Test system: P. aeruginosa ATCC BAA-2108
Assay: MIC 90, resistant ATCC strains of the ESKAPE panel
Assay type: cell-based
Settings: Pseudomonas aeruginosa, ATCCBAA2108, MDR
In this section we review reported MIC90 values for a set of molecules.
Return type: number; implicit unit µg/mL.

molecule	assay target	display unit	MIC90
N=C(NCCO)NC1[C@@H](O)C(OC2[C@@H](F)[C@H](O[C@H]3OC(CN)[C@@H](O)CC3N)C(N)C[C@H]2NC(=O)[C@@H](O)CCN)O[C@H](CO)[C@H]1O (stereo partly shown) [ABX5029, Tobra-AHB-F-Gua 2-hydroxy-ethyl]	P. aeruginosa ATCC BAA-2108	µg/mL	4
N=C(NC[C@@H]1CCNC1)NC1[C@@H](O)C(OC2[C@@H](F)[C@H](O[C@H]3OC(CN)[C@@H](O)CC3N)C(N)C[C@H]2NC(=O)[C@@H](O)CCN)O[C@H](CO)[C@H]1O (stereo partly shown)	P. aeruginosa ATCC BAA-2108	µg/mL	8
N=C(NC[C@@H]1CNCCO1)NC1[C@@H](O)C(OC2[C@@H](F)[C@H](O[C@H]3OC(CN)[C@@H](O)CC3N)C(N)C[C@H]2NC(=O)[C@@H](O)CCN)O[C@H](CO)[C@H]1O (stereo partly shown)	P. aeruginosa ATCC BAA-2108	µg/mL	8
N=C(N)NC1[C@@H](O)C(OC2[C@@H](F)[C@H](O[C@H]3OC(CN)[C@@H](O)[C@H](O)C3N)C(N)C[C@H]2NC(=O)[C@@H](O)CCN)O[C@H](CO)[C@H]1O (stereo partly shown)	P. aeruginosa ATCC BAA-2108	µg/mL	16
N=C(NCCN)NC1C(O)[C@@H](CO)OC(OC2C(F)[C@H](O[C@H]3OC(CN)[C@@H](O)CC3N)C(N)C[C@H]2NC(=O)[C@@H](O)CCN)[C@@H]1O (stereo partly shown)	P. aeruginosa ATCC BAA-2108	µg/mL	2
CNCCNC(=N)NC1[C@@H](O)C(OC2[C@@H](F)[C@H](O[C@H]3OC(CN)[C@@H](O)CC3N)C(N)C[C@H]2NC(=O)[C@@H](O)CCN)O[C@H](CO)[C@H]1O (stereo partly shown)	P. aeruginosa ATCC BAA-2108	µg/mL	4
N=C(NC[C@H]1CCNC1)NC1[C@@H](O)C(OC2[C@@H](F)[C@H](O[C@H]3OC(CN)[C@@H](O)CC3N)C(N)C[C@H]2NC(=O)[C@@H](O)CCN)O[C@H](CO)[C@H]1O (stereo partly shown)	P. aeruginosa ATCC BAA-2108	µg/mL	8
N=C(NC[C@@H]1CCCN1)NC1[C@@H](O)C(OC2[C@@H](F)[C@H](O[C@H]3OC(CN)[C@@H](O)CC3N)C(N)C[C@H]2NC(=O)[C@@H](O)CCN)O[C@H](CO)[C@H]1O (stereo partly shown)	P. aeruginosa ATCC BAA-2108	µg/mL	8

Send back P. aeruginosa ATCC BAA-2108 MIC90 of NCC[C@H](O)C(=O)N[C@@H]1C[C@H](N)[C@@H](O[C@H]2O[C@H](CN)[C@@H](O)[C@H](O)[C@H]2O)[C@H](O)[C@H]1O[C@H]1O[C@H](CO)[C@@H](O)[C@H](N)[C@H]1O [Amikacin, amikacin, reference compound] only.
16

Send back P. aeruginosa ATCC BAA-2108 MIC90 of N=C(N)NC1C(O)[C@@H](CO)OC(OC2C(F)[C@H](O[C@H]3OC(CN)[C@@H](O)CC3N)C(N)C[C@H]2NC(=O)[C@@H](O)CCN)[C@@H]1O (stereo partly shown) only.
4
